Would you mind telling me the reported IC50 of each entry?
Molecular target: human S1P3 receptor (Homo sapiens (Human))
Experiment: Activation or block of activation of human S1P3 receptor, Ca+2 FLIPR assay
Format: cell-based
Conditions: T24 cells stably expressing the human S1P3 receptor; FLIPR Ca+2 response; 0.61 nM to 10,000 nM; read-out: S1P3 IC50

-- ask What value of IC50 on human S1P3 receptor (Homo sapiens (Human)) does CC(C)c1c(C(=O)NCc2ccc(F)c(F)c2)c2ccc(OC3CCC3)cc2n1Cc1cccnc1 have?
-- reply 7 nM

-- ask What value of IC50 on human S1P3 receptor (Homo sapiens (Human)) does COc1ccc2c(C(=O)NCc3ccc(F)c(F)c3)c(C(C)C)n(Cc3ccccc3)c2c1 have?
-- reply 560 nM

-- ask What value of IC50 on human S1P3 receptor (Homo sapiens (Human)) does COC(=O)c1ccc2c(C(=O)NCc3ccc(F)c(F)c3)c(C(C)C)n(Cc3ccccc3)c2c1 have?
-- reply 12 nM

-- ask What value of IC50 on human S1P3 receptor (Homo sapiens (Human)) does CC(C)Oc1ccc2c(C(=O)NCc3ccc(F)c(F)c3)c(CN(C)C)n(Cc3ccccn3)c2c1 have?
-- reply 632 nM

-- ask What value of IC50 on human S1P3 receptor (Homo sapiens (Human)) does CCCCOc1ccc2c(C(=O)NCc3ccc(F)c(F)c3)c(C(C)C)n(Cc3ccccc3)c2c1 have?
-- reply 3 nM

-- ask What value of IC50 on human S1P3 receptor (Homo sapiens (Human)) does CC(C)c1c(C(=O)NCc2ccc(F)c(F)c2)c2ccc(C3=N[C@@H](C)CO3)cc2n1Cc1cccnc1 have?
-- reply 44 nM

-- ask What value of IC50 on human S1P3 receptor (Homo sapiens (Human)) does CC(C)c1c(C(=O)NCc2ccc(F)c(F)c2)c2ccc(C(=O)O)cc2n1Cc1ccccc1 have?
-- reply > 10000 nM

-- ask What value of IC50 on human S1P3 receptor (Homo sapiens (Human)) does CC(C)c1c(C(=O)NCc2ccc(F)c(F)c2)c2ccc(N3CCOCC3)cc2n1Cc1ccccn1 have?
-- reply 130 nM

-- ask What value of IC50 on human S1P3 receptor (Homo sapiens (Human)) does CC(C)c1c(C(=O)NCc2ccc(F)c(F)c2)c2ccc(OC3CCCC3)cc2n1Cc1ccccn1 have?
-- reply 3 nM

-- ask What value of IC50 on human S1P3 receptor (Homo sapiens (Human)) does CC(C)c1c(C(=O)NCc2cncc(F)c2)c2ccc(OC3CCCC3)cc2n1Cc1cccnc1 have?
-- reply 55 nM

-- ask What value of IC50 on human S1P3 receptor (Homo sapiens (Human)) does CCOC(=O)c1ccc2c(C(=O)NCc3cccc(F)c3)c(C(C)C)n(Cc3ccccc3)c2c1 have?
-- reply 42 nM

-- ask What value of IC50 on human S1P3 receptor (Homo sapiens (Human)) does CC(C)c1c(C(=O)NCc2ccc(F)c(F)c2)c2ccc(CN3CCCC3)cc2n1Cc1ccccc1 have?
-- reply 362 nM

-- ask What value of IC50 on human S1P3 receptor (Homo sapiens (Human)) does COCCOc1ccc2c(C(=O)NCc3ccc(F)c(F)c3)c(C(C)C)n(Cc3ccccc3)c2c1 have?
-- reply 6.5 nM

-- ask What value of IC50 on human S1P3 receptor (Homo sapiens (Human)) does CC(C)c1c(C(=O)NCc2ccc(F)c(F)c2)c2ccc(OC3CCCO3)cc2n1Cc1ccccn1 (centres unmarked) [drawing 164] have?
-- reply 9 nM

-- ask What value of IC50 on human S1P3 receptor (Homo sapiens (Human)) does CCO/N=C/c1ccc2c(C(=O)NCc3ccc(F)c(F)c3)c(C(C)C)n(Cc3ccccc3)c2c1 have?
-- reply 145 nM

-- ask What value of IC50 on human S1P3 receptor (Homo sapiens (Human)) does CC(C)c1c(C(=O)NCc2ccc(F)c(F)c2)c2ccc(/C=N/O)cc2n1Cc1ccccc1 have?
-- reply 234 nM

-- ask What value of IC50 on human S1P3 receptor (Homo sapiens (Human)) does CC(C)c1c(C(=O)NCc2ccc(F)c(F)c2)c2ccc(OC3CCN(C(=O)OC(C)(C)C)C3)cc2n1Cc1ccccc1 (centres unmarked) have?
-- reply 673 nM

-- ask What value of IC50 on human S1P3 receptor (Homo sapiens (Human)) does CC(C)c1c(C(=O)NCc2ccc(F)c(F)c2)c2ccc(NC3=NCCS3)cc2n1Cc1ccccn1 have?
-- reply > 8300 nM

-- ask What value of IC50 on human S1P3 receptor (Homo sapiens (Human)) does CC(C)c1c(C(=O)NCc2ccc(F)c(F)c2)c2ccc(OC3CCOC3)cc2n1Cc1ccccn1 (centres unmarked) have?
-- reply 19 nM

-- ask What value of IC50 on human S1P3 receptor (Homo sapiens (Human)) does CC(C)NC(=O)c1ccc2c(C(=O)NCc3ccc(F)c(F)c3)c(C(C)C)n(Cc3ccccc3)c2c1 have?
-- reply 634 nM

-- ask What value of IC50 on human S1P3 receptor (Homo sapiens (Human)) does CC(C)c1c(C(=O)NCc2ccc(F)c(F)c2)c2ccc(OC3CCOCC3)cc2n1Cc1ccccn1 have?
-- reply 36 nM

-- ask What value of IC50 on human S1P3 receptor (Homo sapiens (Human)) does CC(C)c1c(C(=O)NCc2ccc(F)c(F)c2)c2ccc(NC3CCCC3)cc2n1Cc1ccccc1 have?
-- reply 44 nM

-- ask What value of IC50 on human S1P3 receptor (Homo sapiens (Human)) does CCNCc1ccc2c(C(=O)NCc3ccc(F)c(F)c3)c(C(C)C)n(Cc3ccccc3)c2c1 have?
-- reply 2500 nM

-- ask What value of IC50 on human S1P3 receptor (Homo sapiens (Human)) does CC(C)c1c(C(=O)NCc2ccc(F)c(F)c2)c2ccc(NC3CCOC3)cc2n1Cc1ccccc1 (centres unmarked) have?
-- reply 177 nM

-- ask What value of IC50 on human S1P3 receptor (Homo sapiens (Human)) does CC(C)c1c(C(=O)NCc2ccc(F)c(F)c2)c2ccc(OC3CCCO3)cc2n1Cc1ccccn1 (centres unmarked) [drawing 169] have?
-- reply 9 nM

-- ask What value of IC50 on human S1P3 receptor (Homo sapiens (Human)) does CC(C)c1c(C(=O)NCc2ccc(F)c(F)c2)c2ccc(N3CCCC3=O)cc2n1Cc1ccccc1 have?
-- reply 502 nM

----------
Molecular target: human S1P3 receptor (Homo sapiens (Human), UniProt Q99500)
Sequence (Q99500 whole entry): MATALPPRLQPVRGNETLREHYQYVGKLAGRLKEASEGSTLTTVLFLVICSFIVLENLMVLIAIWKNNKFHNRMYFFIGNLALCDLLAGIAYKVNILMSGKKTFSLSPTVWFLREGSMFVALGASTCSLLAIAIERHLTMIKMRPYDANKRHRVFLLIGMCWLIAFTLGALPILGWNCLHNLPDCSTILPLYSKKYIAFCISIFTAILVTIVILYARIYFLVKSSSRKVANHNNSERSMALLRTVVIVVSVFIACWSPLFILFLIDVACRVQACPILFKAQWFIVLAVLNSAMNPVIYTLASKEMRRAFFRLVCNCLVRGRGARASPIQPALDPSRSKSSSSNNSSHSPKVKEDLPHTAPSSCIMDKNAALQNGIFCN
Test: Activation or block of activation of human S1P3 receptor, Ca+2 FLIPR assay
Format: cell-based
Conditions: T24 cells stably expressing the human S1P3 receptor; value in brackets
Measured Property: S1P3 (% inh) (%)
Kindly answer with a numeric value in %, unit omitted.

-- ask S1P3 (% inh) lookup needed for CCOC(=O)c1ccc2c(C(=O)NCc3ccc(F)cc3)c(C(C)C)n(Cc3ccccn3)c2c1 [Compound 50] , thanks.
-- reply 100

-- ask S1P3 (% inh) lookup needed for CC(C)Oc1ccc2c(C(=O)NCc3ccc(F)c(F)c3)c(CO)n(Cc3ccccn3)c2c1 [Compound 106] , thanks.
-- reply 96

-- ask S1P3 (% inh) lookup needed for CCOC(=O)c1ccc2c(C(=O)NCc3ccc(F)c(F)c3)c(C(C)C)n(Cc3ncco3)c2c1 [Compound 47] , thanks.
-- reply 100

-- ask S1P3 (% inh) lookup needed for CC(C)c1c(C(=O)NCc2ccc(F)c(F)c2)c2ccc(NC3CCCC3)cc2n1Cc1ccccc1 [Compound 130] , thanks.
-- reply 99

-- ask S1P3 (% inh) lookup needed for CC(C)c1c(C(=O)NCc2ccc(F)c(F)c2)c2ccc(N(C)C3CCCC3)cc2n1Cc1ccccc1 [Compound 189] , thanks.
-- reply 100

-- ask S1P3 (% inh) lookup needed for CC(C)Cn1c(C(C)C)c(C(=O)NCc2ccc(F)c(F)c2)c2ccc(OC3CCCC3)cc21 [Compound 159] , thanks.
-- reply 96

-- ask S1P3 (% inh) lookup needed for CC(C)c1c(C(=O)NCc2ccc(F)c(F)c2)c2ccc(CO)cc2n1Cc1ccccc1 [Compound 52] , thanks.
-- reply 85

-- ask S1P3 (% inh) lookup needed for CC[C@H]1COC(c2ccc3c(C(=O)NCc4cncc(F)c4)c(C(C)C)n(Cc4ccccc4)c3c2)=N1 [Compound 73] , thanks.
-- reply 100

-- ask S1P3 (% inh) lookup needed for CC(C)c1c(C(=O)NCc2ccc(F)c(F)c2)c2ccc(N3CCOCC3)cc2n1Cc1ccccn1 [Compound 207] , thanks.
-- reply 97

-- ask S1P3 (% inh) lookup needed for COC[C@H]1COC(c2ccc3c(C(=O)NCc4ccc(F)c(F)c4)c(C(C)C)n(Cc4ccccc4)c3c2)=N1 [Compound 77] , thanks.
-- reply 96

-- ask S1P3 (% inh) lookup needed for CC(C)c1c(C(=O)NCc2ccc(F)c(F)c2)c2ccc(OC3CCC3)cc2n1Cc1cccnc1 [Compound 165] , thanks.
-- reply 100

-- ask S1P3 (% inh) lookup needed for CC(C)c1c(C(=O)NCc2ccc(F)c(F)c2)c2ccc(O)cc2n1Cc1ccccc1 [Compound 8] , thanks.
-- reply 71

-- ask S1P3 (% inh) lookup needed for CC(C)c1c(C(=O)NCc2ccc(F)c(F)c2)c2ccc(OC3CCCO3)cc2n1Cc1ccccn1 (stereo not drawn) [drawing 164] , thanks.
-- reply 100

-- ask S1P3 (% inh) lookup needed for C#CCOc1ccc2c(C(=O)NCc3ccc(F)c(F)c3)c(C(C)C)n(Cc3ccccn3)c2c1 , thanks.
-- reply 99

-- ask S1P3 (% inh) lookup needed for CC(C)Oc1ccc2c(C(=O)NCc3ccc(F)c(F)c3)c(C[N+]3(C)CCCC3)n(Cc3ccccn3)c2c1.[I-] [Compound 176] , thanks.
-- reply 98

-- ask S1P3 (% inh) lookup needed for CCOC(=O)c1ccc2c(C(=O)NCc3ccc(F)cc3)c(C(C)C)n(Cc3ccccc3)c2c1 , thanks.
-- reply 99

-- ask S1P3 (% inh) lookup needed for CCNCc1ccc2c(C(=O)NCc3ccc(F)c(F)c3)c(C(C)C)n(Cc3ccccc3)c2c1 , thanks.
-- reply 87

-- ask S1P3 (% inh) lookup needed for CC(C)Oc1ccc2c(C(=O)NCc3ccc(F)c(F)c3)c(C3=NCCO3)n(Cc3ccccn3)c2c1 [Compound 104] , thanks.
-- reply 50

-- ask S1P3 (% inh) lookup needed for CCOC(=O)c1ccc2c(C(=O)NCc3cccc(F)c3)c(C(C)C)n(Cc3ccccc3)c2c1 , thanks.
-- reply 99

-- ask S1P3 (% inh) lookup needed for CCCOc1ccc2c(C(=O)NCc3cccnc3)c(C(C)C)n(Cc3ccccn3)c2c1 , thanks.
-- reply 99

-- ask S1P3 (% inh) lookup needed for CC(C)c1c(C(=O)NCc2ccc(F)c(F)c2)c2ccc(OC3CCCC3)cc2n1Cc1ccccn1 , thanks.
-- reply 100

-- ask S1P3 (% inh) lookup needed for CC[C@H]1COC(c2ccc3c(C(=O)NCc4ccc(F)c(F)c4)c(C(C)C)n(Cc4ncco4)c3c2)=N1 [Compound 83] , thanks.
-- reply 99
